test system: A549 cells; test: Cytotoxicity assay (AlamarBlue); conditions: read-out: CC50 (μM), cytotoxic concentration 50%; A549 cell line, 48 h
Property name: CC50 (µM)
Give bare numbers, in µM.

# annotated cases, reported CC50 shown
Param item = O=C(Nc1ccc(NCC2CCCC2)cc1Cl)c1cc(Cl)ccc1O [Compound 86] ; retrieve measured CC50.
21.5

Param item = O=C(Nc1cc(F)cc(C(F)(F)F)c1)c1cccc(Cl)c1 [Compound 21] ; retrieve measured CC50.
38.6

Param item = CC(C)(CCO)Nc1ccc(NC(=O)c2cc(Cl)ccc2O)c(Cl)c1 [Compound 118] ; retrieve measured CC50.
170

Param item = O=C(Nc1ccc(NCc2ccc(F)cc2)cc1Cl)c1cc(Cl)ccc1O [Compound 95] ; retrieve measured CC50.
54.4

Param item = O=C(Nc1ccc(NCc2ccccc2)cc1Cl)c1cc(Cl)ccc1O [Compound 94] ; retrieve measured CC50.
19.7

I would be grateful if you could provide CC50 for each of the following entries.
1. O=C(NCCc1ccc(F)cc1)c1cc(Cl)ccc1O [Compound 52]
2. CS(=O)(=O)Nc1ccc(Cl)cc1C(=O)Nc1ccc(NC2CCCC2)cc1Cl [Compound 140]
3. O=C(N[C@@H](Cc1ccccc1)C(=O)Nc1cc(C(F)(F)F)cc(C(F)(F)F)c1)c1cc(Cl)ccc1O [Compound 69]
4. CCCCCCCCC(C)Nc1ccc(NC(=O)c2cc(Cl)ccc2O)c(Cl)c1 (stereo not shown) [Compound 84]
5. CC(C)[C@H](NC(=O)c1cc(Cl)ccc1O)C(=O)Nc1ccc(NC2CCCC2)cc1Cl [Compound 147]
6. Cc1ccc(O)c(C(=O)Nc2ccc(NC3CCCC3)cc2Cl)c1 [Compound 136]
7. C[C@H](NC(=O)c1cc(Cl)ccc1O)C(=O)Nc1ccc([N+](=O)[O-])cc1Cl [Compound 57]
8. O=C(Nc1ccc(NC2CCCC2)cc1F)c1cc(Cl)ccc1O [Compound 142]

154
35.4
17.9
21.9
111
30.9
100
51

I would be grateful if you could provide CC50 for each of the following entries.
1. O=C(NCc1ccc(F)cc1Cl)c1cc(Cl)ccc1O [Compound 31]
2. CS(=O)(=O)Nc1ccc(Cl)cc1C(=O)NCC(=O)Nc1ccc([N+](=O)[O-])cc1Cl [Compound 72]
3. CCCNc1ccc(NC(=O)c2cc(Cl)ccc2O)c(Cl)c1 [Compound 80]
4. CCN(CC)c1ccc(NC(=O)c2cc(Cl)ccc2O)c(Cl)c1 [Compound 90]
5. O=C(NCc1ccc(C(F)(F)F)cc1F)c1cc(Cl)ccc1O [Compound 37]
6. O=C(Nc1ccc(NCCCO)cc1Cl)c1cc(Cl)ccc1O [Compound 120]

30.9
141
22.5
55.5
45.6
106
